# TEST: Toxicity liver stage against HepG2, at 10uM
# Type: cell-based
# Design: test concentration 10 uM, cell line HepG2-A16-CD81EGFP
# RUN_CONDITIONS: human, HepG2-A16-CD81EGFP cells; read-out: INHIBITION
Consider the following compounds and their measured cytotoxicity at 10 µM readings.
MEASURE_NAME: cytotoxicity at 10 µM (%)

CC(Cn1ccnc1)NS(=O)(=O)Cc1ccc(F)cc1 (stereo not drawn) :: 5.36
O=C(NCC1(O)COCCN(Cc2cccc(O)c2)C1)c1cnccn1 (stereo not drawn) :: -6.49
CNC(=O)[C@@]12CCC3(CCN(S(C)(=O)=O)CC3)[C@@H]1CN(S(C)(=O)=O)C2 :: -16.1
O=C(C1SCCc2sccc21)N1CC(O)C1 (stereo not drawn) :: 9.22
Cc1noc(CNC(=O)NCC2(C)CCCc3ccccc32)n1 (stereo not drawn) :: -1.17
CC(C)COC(C)C(=O)N1CCCC1 (stereo not drawn) :: 2.77
Cc1nccn1CCC1CCN(c2ccncn2)CC1 :: -9.14
O=C(NCc1ccco1)[C@@H]1CCO[C@@H]2CCN(c3ncccn3)C[C@H]21 :: -77.6
CCc1cc(N[C@H](C(N)=O)C(C)C)n2nc(C)c(C)c2n1 :: 5.88
CN1CCCc2c1nc1c(c2N)CCCC1 :: 11.2
FC(F)(F)c1nc(C2CCCNC2)no1 (stereo not drawn) :: 5.25
Cc1c(CN(C)C(=O)c2ccnn2C)cnn1C :: -5.33
CC(C)CN1C(=O)CC[C@H]2CN(Cc3ncc[nH]3)CC[C@H]21 :: -3.25
CC(C)(CC(=O)Nc1cccc(Oc2ccccn2)c1)C(=O)O :: -17.6
CN(C)c1ncccc1CN1CCOC(C(=O)Nc2ccccc2)C1 (stereo not drawn) :: -29.7
O=C(N1CCCC1)N1CC[C@H]2OCC[C@@]2(COc2ncccc2F)C1 :: -151
COCC1CN(Cc2ccsc2)Cc2cnn(C)c21 (stereo not drawn) :: 5.58
COC(=O)c1cc(C)nc(N2CCN(Cc3cc(C(C)C)no3)CC2)n1 :: 3.29
CNc1ccc(C2CN(c3nc(C)cc(C)n3)CCO2)nc1 (stereo not drawn) :: 0.575
O=C(O)C1(Cc2ccc(Cl)cc2)CCN(c2ncccc2F)CC1 :: -1.29
COc1cc(CCC(=O)NCC2CC2)ccc1OCC(F)(F)F :: -4.81
CN(Cc1ccco1)[C@@H]1CN(Cc2ccco2)[C@@H]2CCCO[C@H]12 :: 1.41
CC(NC(=O)N1CCC(CC(N)=O)CC1)c1csc2ccccc12 (stereo not drawn) :: 1.73
CN(Cc1ccco1)C(=O)CN1CCCCC1Cn1cncn1 (stereo not drawn) :: 3.61
CS(=O)(=O)NC1CCc2[nH]c(=O)ccc2C1 (stereo not drawn) :: 3.46
COc1ccc(NC(=O)N2CCCC2c2ccco2)cc1OC (stereo not drawn) :: -7.07
CCN1CC(CN(C)Cc2nc(-c3cccc(Cl)c3)oc2C)CC1=O (stereo not drawn) :: 6.9
CSC1(CNc2ccc(Br)cn2)CCOCC1 :: -9.99
O=C(CC1CCN(c2cccnn2)CC1)NCCO :: 0.308
CC(NC(=O)NCc1cscn1)c1ccc(N2CCOCC2)cc1 (stereo not drawn) :: -0.736
CCC(C)NC(=O)c1cccc(CNC(=O)CC(F)(F)F)c1 (stereo not drawn) :: 6.99
CC(C)n1c2ccccc2c2c1cc(C(=O)NC1CC1)n2C(=O)N(C)C :: -109
O=C(CCN1CCN(c2ccc3nncn3n2)CC1)N1CCCCC1 :: -6.73
O=C(c1ccnnc1)N1CC2(CCN(c3ncccn3)C2)C1 :: 5.62
CCOc1ccnc(NCc2nc(C)cc(=O)[nH]2)n1 :: -8.42
Cc1cc(C(=O)NC(C)CC(=O)c2cccs2)n(C)n1 (stereo not drawn) :: -0.0944
O=C(NCC1CCN(CCc2ccccc2)C1)NCC1(O)CCC1 (stereo not drawn) :: -0.128
COCC(=O)N1CCC([C@@H]2C[C@H](C(F)(F)F)n3nc(C)cc3N2)CC1 :: -33.6
